Measured ELISA_avg of individual entries
- assay_system: T1, BCMA (Homo sapiens (Human), UniProt Q02223 1-54, limits assumed)
- T1 sequence: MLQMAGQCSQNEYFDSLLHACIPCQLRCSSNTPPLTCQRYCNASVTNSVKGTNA
- assay: ELISA, format not described
- Parameters: unit not given here

[
  {
    "binder": "D-domain SEQ ID NO: 65 (designed binder) MGSWAEFMDRLDAITYRLWALGGSEAELAAFEKEIAAFESELQAYKGKGNPEVEELRGYAAIIRSELQAYRHN",
    "ELISA_avg": 10.8
  },
  {
    "binder": "D-domain SEQ ID NO: 269 (designed binder) MGSWTQFKYHLAVIKWYLEALGGSEAELAGFEQWIAEFEKTLQEYKGKGNPEVEALRKEAAAIRDELQAYRHN",
    "ELISA_avg": 21.1
  },
  {
    "binder": "D-domain SEQ ID NO: 231 (designed binder) MGSWNEFYDRLRAIKKRLYALGGSEAELADFEEDIAQFEVDLQDYKGKGNPEVEALHREAHAITHELWAYRHN",
    "ELISA_avg": 12.4
  },
  {
    "binder": "D-domain SEQ ID NO: 210 (designed binder) MGSWMEFWDRLYAIEFRLFALGGSEAELAAFEKEIAAFESELQAYKGKGNPEVEKLRRVAATIRNELQAYRHN",
    "ELISA_avg": 11.7
  },
  {
    "binder": "D-domain SEQ ID NO: 337 (designed binder) MGSWYSFKWTLARIKLELEALGGSEAELAYFENVIAHFEMELQSYKGKGNPEVEALRKEAAAIRDELQAYRHN",
    "ELISA_avg": 4.05
  }
]
